test.name: Pharmacokinetics in dogs (plasma concentration by HPLC)
Type: in vivo, dog (beagle)
protocol.conditions: dog, plasma, po, 2 mg/kg/day, Mean, day 5; 2 mg/kg/day PO
quantity.name: AUC(0-t) (ng·h/mL)

(A) c1cc(Nc2nccc(-c3cccs3)n2)cc(OCCn2ccnc2)c1
(B) Cc1cc(Nc2nccc(-c3ccncc3)n2)ccc1N.Cl.Cl [Compound 2, reference compound]
## Input I would appreciate it if you could say which entry, A or B , has the lower AUC(0-t) value. Give the label of your selection.
## Output B
(B: 178 ng·h/mL, A: 659 ng·h/mL)

---

test.name: Pharmacokinetics in dogs (plasma concentration by HPLC)
Assay type: in vivo, dog (beagle)
protocol.conditions: dog, plasma, po, 2 mg/kg/day, Mean, day 5; 2 mg/kg/day PO
quantity.name: Tmax (h)

(a) Cc1cc(Nc2nccc(-c3ccncc3)n2)ccc1N.Cl.Cl [Compound 2, reference compound]
(b) c1cc(Nc2nccc(-c3cccs3)n2)cc(OCCn2ccnc2)c1
## Input Of a and b , whose reported Tmax is the larger number? Give the label of your selection.
## Output b

---

test.name: Pharmacokinetics in dogs (plasma concentration by HPLC)
Type: in vivo, dog (beagle)
protocol.conditions: dog, plasma, po, 2 mg/kg/day, Mean of 4 dogs, day 3, 7 h; 2 mg/kg/day PO
quantity.name: concentration at 7 h

Record c1cc(Nc2nccc(-c3cccs3)n2)cc(OCCn2ccnc2)c1 , field concentration at 7 h: < 30 ng/mL

---

test.name: Pharmacokinetics in dogs (plasma concentration by HPLC)
Type: in vivo, dog (beagle)
protocol.conditions: dog, plasma, po, 2 mg/kg/day, one dog (Dog 1), day 5; 2 mg/kg/day PO
quantity.name: Cmax (ng/mL)
Give just the number in ng/mL; leave the unit off.

Record CCN(CC)CCOc1ccc(Nc2nccc(-c3ccncc3)n2)cc1.Cl.Cl [Compound 3, reference compound] , field Cmax: 153

---

test.name: Pharmacokinetics in dogs (plasma concentration by HPLC)
Type: in vivo, dog (beagle)
protocol.conditions: dog, plasma, po, 2 mg/kg/day, Mean of 4 dogs, day 3, 2 h; 2 mg/kg/day PO
quantity.name: concentration at 2 h (ng/mL)

(a) Cc1cc(Nc2nccc(-c3ccncc3)n2)ccc1N.Cl.Cl [Compound 2, reference compound]
(b) c1cc(Nc2nccc(-c3cccs3)n2)cc(OCCn2ccnc2)c1
## Input I would appreciate it if you could say which entry, a or b , has the lower concentration at 2 h value. Give the label of your selection.
## Output a
(a: 66 ng/mL, b: 148 ng/mL)

---

test.name: Pharmacokinetics in dogs (plasma concentration by HPLC)
Assay type: in vivo, dog (beagle)
protocol.conditions: dog, plasma, po, 2 mg/kg/day, Mean, day 3; 2 mg/kg/day PO
quantity.name: half-life (h)

(A) c1cc(Nc2nccc(-c3cccs3)n2)cc(OCCn2ccnc2)c1
(B) Cc1cc(Nc2nccc(-c3ccncc3)n2)ccc1N.Cl.Cl [Compound 2, reference compound]
## Input I would appreciate it if you could say which entry, A or B , has the lower half-life value. Give the label of your selection.
## Output B
(B: 0.96 h, A: 1.47 h)

---

test.name: Pharmacokinetics in dogs (plasma concentration by HPLC)
Assay type: in vivo, dog (beagle)
protocol.conditions: dog, plasma, po, 2 mg/kg/day, Mean of 4 dogs, day 3, 1 h; 2 mg/kg/day PO
quantity.name: concentration at 1 h (ng/mL)

{"columns": ["compound", "concentration at 1 h, ng/mL"],
 "data": [
  ["c1cc(Nc2nccc(-c3cccs3)n2)cc(OCCn2ccnc2)c1", 225],
  ["Cc1cc(Nc2nccc(-c3ccncc3)n2)ccc1N.Cl.Cl [Compound 2, reference compound]", 175]
]}

---

test.name: Pharmacokinetics in dogs (plasma concentration by HPLC)
Type: in vivo, dog (beagle)
protocol.conditions: dog, plasma, po, 2 mg/kg/day, Dog 4, day 1; 2 mg/kg/day PO
quantity.name: AUC(0-t) (ng·h/mL)

(A) Cc1cc(Nc2nccc(-c3ccncc3)n2)ccc1N.Cl.Cl [Compound 2, reference compound]
(B) c1cc(Nc2nccc(-c3cccs3)n2)cc(OCCn2ccnc2)c1
## Input I would appreciate it if you could say which entry, A or B , has the lower AUC(0-t) value. Give the label of your selection.
## Output A

---

test.name: Pharmacokinetics in dogs (plasma concentration by HPLC)
Type: in vivo, dog (beagle)
protocol.conditions: dog, plasma, po, 2 mg/kg/day, Dog 4, day 1; 2 mg/kg/day PO; read-out: AUCO- (to infinite time)
Method: Since dogs are used in toxicology studies of antiasthma compounds, this species is chosen for pharmacokinetic evaluations. […] Heparinized blood samples are obtained from each animal on the first, third and fifth day of dosage at 0.5, 1.0, 2.0, 4.0, 7.0, 12.0 and 24.0 hours after the dose. The samples are centrifuged immediately to obtain plasma which is frozen until analyzed. […]
quantity.name: AUC(0-inf) (ng·h/mL)

(A) Cc1cc(Nc2nccc(-c3ccncc3)n2)ccc1N.Cl.Cl [Compound 2, reference compound]
(B) c1cc(Nc2nccc(-c3cccs3)n2)cc(OCCn2ccnc2)c1
## Input Of A and B , whose reported AUC(0-inf) is the larger number? Give the label of your selection.
## Output B
(B: 1440 ng·h/mL, A: 630 ng·h/mL)

---

test.name: Pharmacokinetics in dogs (plasma concentration by HPLC)
Format: in vivo, dog (beagle)
protocol.conditions: dog, plasma, po, 2 mg/kg/day, Dog 3, day 5; 2 mg/kg/day PO
Description: Since dogs are used in toxicology studies of antiasthma compounds, this species is chosen for pharmacokinetic evaluations. […] Heparinized blood samples are obtained from each animal on the first, third and fifth day of dosage at 0.5, 1.0, 2.0, 4.0, 7.0, 12.0 and 24.0 hours after the dose. The samples are centrifuged immediately to obtain plasma which is frozen until analyzed. […]
quantity.name: half-life (h)
Give just the number in h; leave the unit off.

Record c1cc(Nc2nccc(-c3cccs3)n2)cc(OCCn2ccnc2)c1 , field half-life: 1.94

---

test.name: Pharmacokinetics in dogs (plasma concentration by HPLC)
Type: in vivo, dog (beagle)
protocol.conditions: dog, plasma, po, 2 mg/kg/day, one dog (Dog 1), day 3, 0.5 h; 2 mg/kg/day PO; heading: Plasma concentration
quantity.name: concentration at 0.5 h (ng/mL)
Give just the number in ng/mL; leave the unit off.

Record CCN(CC)CCOc1ccc(Nc2nccc(-c3ccncc3)n2)cc1.Cl.Cl [Compound 3, reference compound] , field concentration at 0.5 h: 124

---

test.name: Pharmacokinetics in dogs (plasma concentration by HPLC)
Format: in vivo, dog (beagle)
protocol.conditions: dog, plasma, po, 2 mg/kg/day, Dog 2, day 3, 2 h; 2 mg/kg/day PO
quantity.name: concentration at 2 h (ng/mL)
Give just the number in ng/mL; leave the unit off.

Record c1cc(Nc2nccc(-c3cccs3)n2)cc(OCCn2ccnc2)c1 , field concentration at 2 h: 129

---

test.name: Pharmacokinetics in dogs (plasma concentration by HPLC)
Format: in vivo, dog (beagle)
protocol.conditions: dog, plasma, po, 2 mg/kg/day, Mean, day 5; 2 mg/kg/day PO; read-out: AUCO- (to infinite time)
quantity.name: AUC(0-inf) (ng·h/mL)

(I) c1cc(Nc2nccc(-c3cccs3)n2)cc(OCCn2ccnc2)c1
(II) Cc1cc(Nc2nccc(-c3ccncc3)n2)ccc1N.Cl.Cl [Compound 2, reference compound]
## Input I would appreciate it if you could say which entry, I or II , has the lower AUC(0-inf) value. Give the label of your selection.
## Output II
(II: 407 ng·h/mL, I: 871 ng·h/mL)

---

test.name: Pharmacokinetics in dogs (plasma concentration by HPLC)
Type: in vivo, dog (beagle)
protocol.conditions: dog, plasma, po, 2 mg/kg/day, Mean, day 1; 2 mg/kg/day PO
quantity.name: AUC(0-t) (ng·h/mL)

(A) c1cc(Nc2nccc(-c3cccs3)n2)cc(OCCn2ccnc2)c1
(B) Cc1cc(Nc2nccc(-c3ccncc3)n2)ccc1N.Cl.Cl [Compound 2, reference compound]
## Input I would appreciate it if you could say which entry, A or B , has the lower AUC(0-t) value. Give the label of your selection.
## Output B
(B: 458 ng·h/mL, A: 1380 ng·h/mL)

---

test.name: Pharmacokinetics in dogs (plasma concentration by HPLC)
Format: in vivo, dog (beagle)
protocol.conditions: dog, plasma, po, 2 mg/kg/day, Dog 3, day 1, 0.5 h; 2 mg/kg/day PO
quantity.name: concentration at 0.5 h (ng/mL)

(I) c1cc(Nc2nccc(-c3cccs3)n2)cc(OCCn2ccnc2)c1
(II) Cc1cc(Nc2nccc(-c3ccncc3)n2)ccc1N.Cl.Cl [Compound 2, reference compound]
## Input Of I and II , whose reported concentration at 0.5 h is the larger number? Give the label of your selection.
## Output II
(II: 605 ng/mL, I: 97 ng/mL)

---

test.name: Pharmacokinetics in dogs (plasma concentration by HPLC)
Type: in vivo, dog (beagle)
protocol.conditions: dog, plasma, po, 2 mg/kg/day, Dog 4, day 1; 2 mg/kg/day PO
quantity.name: Tmax (min)

(1) Cc1cc(Nc2nccc(-c3ccncc3)n2)ccc1N.Cl.Cl [Compound 2, reference compound]
(2) c1cc(Nc2nccc(-c3cccs3)n2)cc(OCCn2ccnc2)c1
## Input I would appreciate it if you could say which entry, 1 or 2 , has the lower Tmax value. Give the label of your selection.
## Output 1
(1: 30 min, 2: 60 min)
